GI50 listing for selected compounds.
# System: XF498
# Protocol summary: NCI tumour cell line growth inhibition, 48 h
The source made the active and inactive calls. Cut-off read from the data, not from the text of the source: active = GI50 up to about 1.1 µM and inactive = higher.

Example entries and their recorded answers appear below.
CCOC(=O)Nc1ccc(S(=O)(=O)I)cc1.CCOC(=O)Nc1ccc(S(=O)(=O)I)cc1.CN(C=O)C1=C(N(C)C=O)C(N(C)C=O)=C(N(C)C=O)C(=O)C1=O
> 100 µM (inactive)
Brc1nc2c3ccccc3ncn2c1Br
25.8 µM (inactive)
CC(=O)CCC1(c2ccccc2)OC(=O)C(C#N)=C1c1ccccc1 (centres undefined)
> 100 µM (inactive)

Now for another entry.
Look up GI50 for this compound: O=C(/C(=C\c1ccc(Cl)cc1)c1ccccc1)c1ccccc1
37.6 µM (inactive)

###

# Tested on: HOP-62
# Protocol summary: NCI tumour cell line growth inhibition, 48 h
The source made the active and inactive calls. No stated cut-off is given here; in the data, active = GI50 up to about 1.1 µM and inactive = higher. *1 amine or outer side, *2 acyl side, *3 side chain or, on linkers, in order; H or OH if unused. Where a SMILES comes first, the peptide text is derived from it. [ ]: non-standard residue; d: D form. The star is where a group is joined. ξ: configuration not given here. X43 = CCC(=O)CC(O)CC(C)CC(N[*:1])C(=O)[*:2]; ξLeu(3ξ-OH) = CC(C)C(O)C(N)C(=O)O; ξPro(4ξ-Me) = CC1CNC(C(=O)O)C1; X42 = CCC(C)/C=C/C(=O)*; Aib = CC(C)(N)C(=O)O; X44 = CC(CN(C)C)N*; βAla = NCCC(=O)O
Answer with one of the outcomes t (active), f (inactive)

As a guide, the following entries are already answered.
FC(F)(F)c1nc2ccc3[nH]c4c(-c5ccccc5)nccc4c3c2[nH]1
f
CN(C)Cc1cc(C(=O)O)cc(CN(C)C)c1O
f
COc1ccc(CCN2C(=O)C=CC2=O)cc1OC
f
CC[C@@]1(O)CC(OC2CC(N3CCOCC3)C(O)C(C)O2)c2c(O)c3c(c(O)c2[C@H]1O)C(=O)c1cccc(O)c1C3=O (some centres not stated)
t

I would be grateful if you could indicate the recorded call for O=C1CC2C(=O)N(Cc3ccccc3)C1C(S(=O)(=O)c1ccccc1)C2S(=O)(=O)c1ccccc1 (configuration not stated) .
f

I would be grateful if you could indicate the recorded call for O=C(O)CSC(CC1(c2ccc(Cl)cc2)NC(=O)CS1)c1ccc(Cl)cc1 (configuration not stated) .
f

I would be grateful if you could indicate the recorded call for CCC(=O)CC(O)CC(C)CC(NC(=O)C1CC(C)CN1C(=O)/C=C/C(C)CC)C(=O)NC(C(=O)NC(C)(C)C(=O)NC(CC(C)C)C(=O)NC(CC(C)C)C(=O)NC(C)(C)C(=O)NC(C)(C)C(=O)NCCC(=O)NC(C)CN(C)C)C(O)C(C)C (configuration not stated) (X42-[ξPro(4ξ-Me)][X43][ξLeu(3ξ-OH)][Aib]LL[Aib][Aib][βAla]-X44; configuration not given here) .
t

###

# Tested on: NCI-H226
# Protocol summary: NCI tumour cell line growth inhibition, 48 h
Activity calls are given as the source filed them. Rule as the data show it: active = GI50 up to about 1.1 µM and inactive = higher.
Answer with one of the outcomes active, inactive

As a guide, the following entries are already answered.
O=c1[nH]c(C2CCCCC2)nc2ccc(Cl)cc12
inactive
CCCCCCCCCC(=O)NC(Cc1ccc(O)cc1)C(=O)NCCCNCCCCNCCCNC(=O)[C@@H](N)CCCN=C(N)N (stereo partly specified)
inactive
CC12NC(=C(C#N)C#N)C(C#N)=C3NC(N)=C(C#N)C(=C31)Oc1ccccc12 (stereo unspecified)
inactive
CC1=NN(c2nc(N)nc(/C(C#N)=C\C3COc4ccccc4C3=O)n2)C(C)(C)C1 (stereo unspecified)
inactive
C/C(=N\NC(=O)c1ccncc1)c1ccc2ccccc2c1O
inactive
CCOC(=O)c1c(N2CCCC2)[nH]c(=O)c(C(c2cccs2)c2c(O)c(C(=O)OCC)c(N3CCCC3)[nH]c2=O)c1O
inactive

I would be grateful if you could indicate the recorded call for COc1ccc(/C=C2/SC(c3c(O)ccc4ccccc34)N(NC(=O)CCCCCCCCC(=O)NN3C(=O)/C(=C\c4ccc(OC)c(OC)c4)SC3c3c(O)ccc4ccccc34)C2=O)cc1OC (stereo unspecified) .
active
